testSystem: UniProt:P03070
Sequence (P03070 whole entry): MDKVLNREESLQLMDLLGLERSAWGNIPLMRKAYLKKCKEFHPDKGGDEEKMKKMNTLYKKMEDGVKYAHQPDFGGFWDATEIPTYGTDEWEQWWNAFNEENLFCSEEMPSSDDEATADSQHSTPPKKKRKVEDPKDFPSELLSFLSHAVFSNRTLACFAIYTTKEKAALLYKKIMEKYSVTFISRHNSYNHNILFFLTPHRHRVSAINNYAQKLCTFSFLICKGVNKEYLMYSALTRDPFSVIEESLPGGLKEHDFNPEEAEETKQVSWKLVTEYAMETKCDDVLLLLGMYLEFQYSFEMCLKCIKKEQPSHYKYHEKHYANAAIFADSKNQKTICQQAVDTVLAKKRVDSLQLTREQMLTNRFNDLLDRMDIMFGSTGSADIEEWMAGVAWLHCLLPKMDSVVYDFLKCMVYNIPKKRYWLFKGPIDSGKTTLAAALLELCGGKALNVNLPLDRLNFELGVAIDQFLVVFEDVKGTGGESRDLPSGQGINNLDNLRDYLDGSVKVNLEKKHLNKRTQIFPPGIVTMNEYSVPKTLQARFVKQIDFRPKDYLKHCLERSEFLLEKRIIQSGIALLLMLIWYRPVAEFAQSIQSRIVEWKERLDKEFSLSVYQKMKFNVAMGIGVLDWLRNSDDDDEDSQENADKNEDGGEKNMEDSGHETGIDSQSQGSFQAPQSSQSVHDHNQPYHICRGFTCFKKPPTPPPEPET
Assay type: functional, Betapolyomavirus macacae
Calls of active or inactive are those of the source.
Property: IC50; scope: individual compounds

A selection of reference data follows.
COc1ccc(NC2CCCN(Cc3cccc4cnccc34)C2)cc1OC (stereo not drawn)	42.5 µM (active)
CCn1nc(C)cc1-c1nnc(Sc2ncc([N+](=O)[O-])s2)n1C	17.6 µM (active)

Qu. Give IC50 only, for Cc1cc(C)c2c(=O)n(CC(=O)NCCCN3CCN(c4ccccc4F)CC3)sc2n1 , using UniProt:P03070 data.
Ans. 14.3 µM (active)

====

Readings of EC50 for the listed compounds
assayName: cells
Format: functional, cell-based
The source made the active and inactive calls.

S=C(N/N=C/c1cccc2ccccc12)Nc1cccc(Cl)c1	> 350 µM (not active)
Cc1ccccc1N=Nc1ccc(O)c2ncccc12	7.93 µM (active)
CCCN(CCC)C(C)C(=O)NCC1(c2ccccc2)CCCC1 (stereo unspecified)	> 350 µM (not active)
COc1ccc(OC)c2[nH]c(C(=O)N/N=C/c3ccccc3O)cc12	12.2 µM (active)
COc1ccccc1-c1cc(C(F)(F)F)nc(S(C)(=O)=O)n1	> 350 µM (not active)

Let us move to another entry and its EC50.
Qu. Supply measured EC50 of CCN(CC)c1ccc(/C=N/Nc2nc3ccccc3[nH]2)c(O)c1 in your reply.
Ans. 2.56 µM (active)

Sourced from ChEMBL document CHEMBL1201862
